The values you see were collected from paper PMC9521028.

- Tested on: FOXO3-induced apoptotic cell death in SH-EP/FOXO3 neuroblastoma cells
- test.protocol: Resazurin early cell death evaluation assay
- Assay type: cell-based
- measurement.context: SH-EP/FOXO3 cells
readout.name: concentration above which the compound is toxic (spontaneous cell death)

CCCOc1ccc(NC(=N)Nc2nc(C)cc(NCCc3ccccc3)n2)cc1; higher than 4 μM
Cc1cc(C)nc(NC(=N)NCCc2ccccc2)n1; higher than 4 μM
Cc1cc(C)nc(NC(=N)NCc2cccc3ccccc23)n1; higher than 4 μM

###

- Test system: FOXO3 binding to the promoter region of DEPP1 in SH-EP/FOXO3 cells
- test.protocol: DEPP1-luciferase reporter assay of FOXO3 transcriptional activity
- Format: cell-based
- measurement.context: initial screen, 50 μM compound
readout.name: potency in blocking FOXO3 binding to the promoter region of DEPP1, compared with 5ca

Cc1cc(C)nc(NC(=N)NCc2ccc(C(C)(C)C)cc2)n1 [5cg]; more potent than 5ca
CCCCNc1cc(C)nc(NC(=N)Nc2ccc(OCCC)cc2)n1 [5dc]; more potent than 5ca
Cc1cc(C)nc(NC(=N)NCc2cccc3ccccc23)n1 [5ci]; more potent than 5ca

###

- test.protocol: Estimation of compound solubility in water (saturated solution, UV-vis)
- Type: physicochemical
- Procedure: To estimate the solubility, we prepared saturated solutions of the compounds by adding 5 mg of each selected compound to 700 μL of 20 mM phosphate buffer (pH 6.5) containing 50 mM KCl. After 48 h of gentle agitation at room temperature (RT), the solutions were spun down, and the supernatant was filtered through 0.2 μm of SPARTAN 13/0.2 RC filter units (Merck KgaA, Darmstadt, Germany) and diluted 100–200× in the same phosphate buffer. […]
readout.name: solubility in water (in words)

Cc1cc(C)nc(NC(=N)NCc2cccc3ccccc23)n1; low solubility
CCCCNc1cc(C)nc(NC(=N)Nc2ccc(OCCC)cc2)n1; low solubility

###

- test.protocol: Estimation of compound solubility in water (saturated solution, UV-vis)
- Format: physicochemical
- measurement.context: aqueous buffer, thermodynamic from solid; 20 mM phosphate (pH 6.5) and 50 mM KCl buffer at 23 °C
Label 1 when solubility at 48 h >= 2000 µM; otherwise -1.

Input: Check if solubility at 48 h >= 2000 µM (inclusive). Item: Cc1cccc(CNC(=N)Nc2nc(C)cc(C)n2)c1
Output: 1

Input: Check if solubility at 48 h >= 2000 µM (inclusive). Item: Cc1cc(C)nc(NC(=N)NCc2ccc(C(C)(C)C)cc2)n1
Output: -1

Input: Check if solubility at 48 h >= 2000 µM (inclusive). Item: CCCCNc1cc(C)nc(NC(=N)Nc2ccc(OCCC)cc2)n1
Output: -1

Input: Check if solubility at 48 h >= 2000 µM (inclusive). Item: Cc1cc(C)nc(NC(=N)NCc2cccc3ccccc23)n1
Output: -1

Input: Check if solubility at 48 h >= 2000 µM (inclusive). Item: Cc1cc(C)nc(NC(=N)NCCc2ccccc2)n1
Output: 1

Input: Check if solubility at 48 h >= 2000 µM (inclusive). Item: CCCOc1ccc(NC(=N)Nc2nc(C)cc(NCCc3ccccc3)n2)cc1
Output: -1
